System: P. falciparum female gametocytes
Test: P. falciparum Dual Gamete Formation Assay (PfDGFA), female readout (Pfs25-positive female gametes)
Type: cell-based, Plasmodium falciparum NF54
Settings: 2µM, 24h preincubation with gametocytes prior to induction of gametogenesis; replicate R1
Protocol: […] The Pf DGFA was performed as described in Delves et al. 2016 [17]. […] Exflagellation was recorded by capturing 10 frames over 1 s under brightfield illumination using a x4 objective with a 1.5x zoom (effectively x6) attached to an automated Nikon Ti fluorescence microscope. […] The plates were then returned to the microscope and female gametes imaged at x6 using fluorescence microscopy. […]
Criterion: % inhibition female (individual replicates) R1 meeting or surpassing 20%. Met: Criterion met. Not met: Criterion not met.

# compound, target.or.test.system, label.class
measured = [
    ("CN(CCN)Cc1ccc(-c2ccc(-c3nc4cc(C(F)(F)F)ccc4[nH]3)s2)cc1.O=C(O)C(F)(F)F", "P. falciparum female gametocytes", "Criterion not met"),
    ("O=C(/C=C/c1ccc(Cl)c(Cl)c1)N1CCC(CN2CCC(c3c[nH]c4ccncc34)CC2)CC1", "P. falciparum female gametocytes", "Criterion met"),
    ("NS(=O)(=O)c1cccc(Nc2nc(N[C@@H]3CCNC3)nc3cc[nH]c(=O)c23)c1.O=C(O)C(F)(F)F", "P. falciparum female gametocytes", "Criterion not met"),
    ("COc1ccc(CNC2CCN(C)CC2)cc1-c1ccc(S(=O)(=O)NC2CCC2)cc1.O=C(O)C(F)(F)F", "P. falciparum female gametocytes", "Criterion not met"),
    ("Cl.N[C@@H](CCNC1CCN(c2cccc(C(F)(F)F)c2)CC1)Cc1ccc(F)c(F)c1", "P. falciparum female gametocytes", "Criterion met"),
    ("O=C(O)C(F)(F)F.O=S(=O)(NCCN1CCCC1)c1ccc(-c2cccc(CNC3Cc4ccccc4C3)c2)cc1F", "P. falciparum female gametocytes", "Criterion met"),
    ("C/C=C/COc1ccc2ccccc2c1CNCCCCCCCCNCc1c(OC/C=C/C)ccc2ccccc12.CS(=O)(=O)O.O", "P. falciparum female gametocytes", "Criterion met"),
    ("COc1ccc(CNCc2ccc(F)cc2)cc1-c1cccc(S(=O)(=O)NCCN2CCCC2)c1.O=C(O)C(F)(F)F", "P. falciparum female gametocytes", "Criterion met"),
    ("COc1cc2ccccc2cc1CNCCCCCCNCc1cc2ccccc2cc1OC.CS(=O)(=O)O", "P. falciparum female gametocytes", "Criterion not met"),
    ("COc1ccc(Cn2c(Nc3cccc(C(F)(F)F)c3)nc3ccc(C(=O)NCCN4CCCC4)cc32)cc1Cl", "P. falciparum female gametocytes", "Criterion not met"),
    ("Br.CC(C)(Cc1ccc(Cl)cc1)NCCCCCCNCCc1ccc(O)c(O)c1", "P. falciparum female gametocytes", "Criterion met"),
    ("Cl.NC1CCN(CCc2ccc(NS(=O)(=O)c3ccc(-c4ccccc4)cc3)cc2)CC1", "P. falciparum female gametocytes", "Criterion met"),
    ("O=C(/C=C/c1c(Cl)cccc1Cl)NC1CCC(CN2CCC(c3c[nH]c4ccncc34)CC2)CC1 (stereo not shown)", "P. falciparum female gametocytes", "Criterion not met"),
    ("Nc1nc(N)c2c(ccc3c2ccn3Cc2cccc(F)c2)n1", "P. falciparum female gametocytes", "Criterion met"),
    ("Cl.c1ccc2c(c1)cc(CNCCCN1CCN(CCCNCc3cc4ccccc4c4ccccc34)CC1)c1ccccc12", "P. falciparum female gametocytes", "Criterion met"),
    ("CN1CCC(N2CCC(Oc3cccc(C(=O)NCCCC4CCCC4)c3)CC2)CC1", "P. falciparum female gametocytes", "Criterion met"),
    ("CCCCCCCN1CC[C@@H](CCCc2ccnc3ccc(OC)cc23)[C@@H](CCN)C1.O=C(O)C(=O)O", "P. falciparum female gametocytes", "Criterion met"),
    ("O=C(O)C(F)(F)F.O=S(=O)(NCCN1CCCC1)c1cccc(-c2ccc(CNC3Cc4ccccc4C3)cc2)c1", "P. falciparum female gametocytes", "Criterion met"),
    ("Cn1cc(CN2CCC(OC(c3ccccc3)c3ccc(Cl)cc3)CC2)cn1 (stereo not shown)", "P. falciparum female gametocytes", "Criterion met"),
    ("O=C(Nc1nc(-c2ccccn2)cs1)c1ccc(S(=O)(=O)N2CCc3ccccc32)cc1", "P. falciparum female gametocytes", "Criterion met"),
    ("Cl.NCc1ccc(-c2ccc3c(N)nccc3c2)cc1", "P. falciparum female gametocytes", "Criterion not met"),
    ("Br.Oc1cccc(CCNCCCCCCNCCc2ccc(Cl)cc2)c1", "P. falciparum female gametocytes", "Criterion not met"),
    ("CCc1ccc(N2C(N)=NC(N)=NC2(C)C)cc1.Cl", "P. falciparum female gametocytes", "Criterion not met"),
    ("Cl.Cn1ccc(-c2cccc(Nc3ccnc4cc(-c5nccs5)ccc34)c2)n1", "P. falciparum female gametocytes", "Criterion not met"),
    ("Br.CCCC1N=C(N)N=C(N)N1c1ccc(CC)cc1 (stereo not shown)", "P. falciparum female gametocytes", "Criterion not met"),
    ("NC1CCN(Cc2ccc(-c3ccc(-c4nc5cc(F)ccc5[nH]4)cc3)cc2)C1.O=C(O)C(F)(F)F (stereo not shown)", "P. falciparum female gametocytes", "Criterion met"),
    ("Cl.c1ccc2c(Nc3ccc(OCCOCCOc4ccc(Nc5c6ccccc6nc6ccccc56)cc4)cc3)c3ccccc3nc2c1", "P. falciparum female gametocytes", "Criterion met"),
    ("CN1CCN(CCCCNc2c3ccccc3nc3ccccc23)CC1", "P. falciparum female gametocytes", "Criterion met"),
    ("Cc1cccc2nc(-c3ccc(-c4cccc(CN5CCC(CCN6CCCCC6)CC5)c4)s3)[nH]c12.O=C(O)C(F)(F)F", "P. falciparum female gametocytes", "Criterion met"),
]

Cited source for all entries: paper PMC10584170
